- experiment: Selectivity index, ratio of IC50 for human HeLa cells to IC50 for chloroquine-resistant Plasmodium falciparum W2
- Format: toxicity
- assay conditions: read-out: Ratio IC50
Rule: true (1) for selectivity ratio not less than 200, false (0) for anything less.

Take a look at these entries with their results.
>  <compound>
COc1ccc(/C=C/C(=O)c2ccc(OCc3cn(CCNc4ccnc5cc(Cl)ccc45)nn3)cc2)cc1

>  <assigned category>
true (1)

$$$$
>  <compound>
COc1ccc(/C=C/C(=O)c2ccc(OCc3cn(CCNc4ccnc5cc(Cl)ccc45)nn3)cc2)cc1OC

>  <assigned category>
false (0)

$$$$
>  <compound>
COc1cc(C2=NN(C(C)=O)C(c3ccccc3)C2)ccc1OCc1cn(CCCNc2ccnc3cc(Cl)ccc23)nn1 (stereo unspecified)

>  <assigned category>
true (1)

$$$$

Lookup: Does the compound COc1ccc(C2CC(c3ccc(OCc4cn(CCNc5ccnc6cc(Cl)ccc56)nn4)cc3)=NN2C(C)=O)cc1 (stereo unspecified) have recorded selectivity ratio that is 200 or more?
Found: true (1)

Lookup: Does the compound COc1ccc(C2CC(c3ccc(OCc4cn(CCNc5ccnc6cc(Cl)ccc56)nn4)c(OC)c3)=NN2C(C)=O)cc1 (stereo unspecified) have recorded selectivity ratio that is 200 or more?
Found: true (1)

Lookup: Does the compound COc1ccc(C2CC(c3ccc(OCc4cn(CCNc5ccnc6cc(Cl)ccc56)nn4)c(OC)c3)=NN2C(C)=O)cc1OC (stereo unspecified) have recorded selectivity ratio that is 200 or more?
Found: true (1)

* * *

- Test system: Plasmodium falciparum
- experiment: Antiplasmodial activity against chloroquine-resistant Plasmodium falciparum W2 after 48 hrs by YOYO-1 dye-based flow cytometry
- Assay type: functional, organism-based
- assay conditions: W2, 48 h
Consider the following molecules and their measured IC50 readings.
Please state the figure in nM; there is no need to write the unit.

>  <molecule>
COc1ccc(/C=C/C(=O)c2ccc(OCc3cn(CCCNc4ccnc5cc(Cl)ccc45)nn3)c(OC)c2)cc1OC

>  <readout>
IC50

>  <quantitative readout>
337

$$$$
>  <molecule>
COc1cc(C2=NN(C(C)=O)C(c3ccccc3)C2)ccc1OCc1cn(CCNc2ccnc3cc(Cl)ccc23)nn1 (stereo not drawn)

>  <readout>
IC50

>  <quantitative readout>
286

$$$$
>  <molecule>
COc1cc(C2CC(c3ccc(OCc4cn(CCCNc5ccnc6cc(Cl)ccc56)nn4)cc3)=NN2C(C)=O)cc(OC)c1OC (stereo not drawn)

>  <readout>
IC50

>  <quantitative readout>
2420

$$$$
>  <molecule>
CC(=O)N1N=C(c2ccc(OCc3cn(CCNc4ccnc5cc(Cl)ccc45)nn3)cc2)CC1c1ccccc1 (stereo not drawn)

>  <readout>
IC50

>  <quantitative readout>
237

$$$$
>  <molecule>
COc1ccc(C2CC(c3ccc(OCc4cn(CCNc5ccnc6cc(Cl)ccc56)nn4)c(OC)c3)=NN2C(C)=O)cc1OC (stereo not drawn)

>  <readout>
IC50

>  <quantitative readout>
53.7

$$$$
>  <molecule>
COc1cc(C(=O)/C=C/c2ccccc2)ccc1OCc1cn(CCNc2ccnc3cc(Cl)ccc23)nn1

>  <readout>
IC50

>  <quantitative readout>
355

$$$$

Would you kindly look at the next entry?
Lookup: Entry COc1cc(C2=NN(C(C)=O)C(c3cc(OC)c(OC)c(OC)c3)C2)ccc1OCc1cn(CCCNc2ccnc3cc(Cl)ccc23)nn1 (stereo not drawn) , system Plasmodium falciparum: what IC50 was measured?
Found: 1740
